- SYSTEM_TESTED: GRM3 (Homo sapiens)
- Construct: purchased Promega (in-house HiBiT-GPCR construct library, NanoBRET)
- Sequence (Q14832 23-879): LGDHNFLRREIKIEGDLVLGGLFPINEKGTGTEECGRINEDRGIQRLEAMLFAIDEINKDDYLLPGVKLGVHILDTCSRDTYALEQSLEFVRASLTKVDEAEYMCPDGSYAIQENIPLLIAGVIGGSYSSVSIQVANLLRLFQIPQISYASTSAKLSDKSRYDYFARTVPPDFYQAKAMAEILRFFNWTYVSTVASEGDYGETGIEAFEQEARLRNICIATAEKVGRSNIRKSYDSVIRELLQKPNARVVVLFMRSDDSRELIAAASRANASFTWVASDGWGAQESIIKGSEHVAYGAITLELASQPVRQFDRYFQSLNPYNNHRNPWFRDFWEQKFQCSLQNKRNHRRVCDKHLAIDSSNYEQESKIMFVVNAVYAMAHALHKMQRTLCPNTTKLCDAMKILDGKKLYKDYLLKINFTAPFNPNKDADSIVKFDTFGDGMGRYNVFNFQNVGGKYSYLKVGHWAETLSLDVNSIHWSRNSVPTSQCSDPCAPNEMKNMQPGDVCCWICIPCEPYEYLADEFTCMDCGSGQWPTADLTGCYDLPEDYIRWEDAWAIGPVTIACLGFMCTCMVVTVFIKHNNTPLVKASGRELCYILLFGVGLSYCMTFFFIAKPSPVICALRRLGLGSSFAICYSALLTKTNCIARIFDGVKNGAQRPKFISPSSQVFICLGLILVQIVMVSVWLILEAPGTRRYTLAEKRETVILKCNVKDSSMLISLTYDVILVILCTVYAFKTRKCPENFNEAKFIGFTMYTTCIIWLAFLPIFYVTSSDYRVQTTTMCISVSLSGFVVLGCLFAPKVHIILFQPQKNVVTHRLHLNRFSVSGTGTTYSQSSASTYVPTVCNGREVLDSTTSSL
- ASSAY_NOTES: NanoBRET screen HiBiT-GRM3 in HEK293
- Assay type: binding
- RUN_PARAMETERS: GRM3; tracer 0.1μM
READOUT_NAME: NanoBRET Fold Response

COMPOUND	READOUT_NAME	READOUT_NUMBER
CCCn1c(=O)c2[nH]c(-c3ccc(OCC(=O)NCCNC(=O)CCOCCNC(=O)c4ccc(CNC(=O)CCc5ccc6n5[B-](F)(F)[N+]5=C(c7ccc[nH]7)C=CC5=C6)cc4)cc3)nc2n(CCC)c1=O [XAC-3-NB590]	NanoBRET Fold Response	1.02
O=C(CCOCCOCCOCCOCCNC(=O)CCc1ccc2n1[B-](F)(F)[N+]1=C(c3ccc[nH]3)C=CC1=C2)NCCCN1CCN(C2=Nc3ccccc3Oc3ccc(Cl)cc32)CC1 [Loxapine-a-2-NB590]	NanoBRET Fold Response	0.99
CN(C)CCC=C1c2ccccc2CCc2ccc(C(=O)NCCNC(=O)CCOCCOCCOCCOCCNC(=O)CCc3ccc4n3[B-](F)(F)[N+]3=C(c5ccc[nH]5)C=CC3=C4)cc21 [Amitriptyline-b-2-NB590]	NanoBRET Fold Response	1.00

---

- SYSTEM_TESTED: CHRM5 (Homo sapiens)
- Construct: purchased Promega (in-house HiBiT-GPCR construct library, NanoBRET)
- Sequence (P08912 whole entry): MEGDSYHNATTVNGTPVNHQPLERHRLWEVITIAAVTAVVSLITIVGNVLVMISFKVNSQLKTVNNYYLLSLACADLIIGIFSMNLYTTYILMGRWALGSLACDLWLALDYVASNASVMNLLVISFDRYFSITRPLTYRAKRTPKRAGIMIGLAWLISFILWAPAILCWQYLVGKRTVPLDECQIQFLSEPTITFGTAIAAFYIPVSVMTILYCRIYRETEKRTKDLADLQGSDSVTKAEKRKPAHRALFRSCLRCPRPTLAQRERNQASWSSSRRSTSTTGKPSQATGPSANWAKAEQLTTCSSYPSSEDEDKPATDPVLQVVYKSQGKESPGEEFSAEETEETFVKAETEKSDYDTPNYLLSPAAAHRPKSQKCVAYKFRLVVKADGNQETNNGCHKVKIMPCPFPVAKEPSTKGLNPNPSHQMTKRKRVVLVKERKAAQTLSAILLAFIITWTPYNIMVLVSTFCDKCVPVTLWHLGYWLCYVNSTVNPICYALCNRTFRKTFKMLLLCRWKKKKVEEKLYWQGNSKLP
- ASSAY_NOTES: NanoBRET screen HiBiT-CHRM5 in HEK293
- Assay type: binding
- RUN_PARAMETERS: CHRM5; tracer 1μM
Attribute: NanoBRET Fold Response

COMPOUND	SYSTEM_TESTED	NanoBRET Fold Response
CC(C)N(CC[C@H](c1ccccc1)c1cc(CCNC(=O)CCOCCOCCOCCOCCNC(=O)CCc2ccc3n2[B-](F)(F)[N+]2=C(c4ccc[nH]4)C=CC2=C3)ccc1O)C(C)C	CHRM5 (Homo sapiens)	2.82
N#CN=C(NCCCOc1cccc(CN2CCCCC2)c1)NCCNC(=O)CCOCCOCCOCCOCCNC(=O)CCc1ccc2n1[B-](F)(F)[N+]1=C(c3ccc[nH]3)C=CC1=C2	CHRM5 (Homo sapiens)	1.10
O=C(CCc1ccc2n1[B-](F)(F)[N+]1=C(c3ccc[nH]3)C=CC1=C2)NCc1ccc(C(=O)NCCOCCC(=O)N[C@@H]2CC[C@@]3(O)[C@H]4Cc5ccc(O)c6c5[C@@]3(CCN4CC3CC3)[C@H]2O6)cc1 [Naltrexone-3-NB590]	CHRM5 (Homo sapiens)	0.79
CC(C)N(CC[C@H](c1ccccc1)c1cc(CCNC(=O)c2ccc(CNC(=O)CCc3ccc4n3[B-](F)(F)[N+]3=C(c5ccc[nH]5)C=CC3=C4)cc2)ccc1O)C(C)C	CHRM5 (Homo sapiens)	1.94
O=C(CCc1ccc2n1[B-](F)(F)[N+]1=C(c3ccc[nH]3)C=CC1=C2)NCCOCCOCCNC(=O)OCCOCCN1CCN(C2=Nc3ccccc3Sc3ccccc32)CC1	CHRM5 (Homo sapiens)	1.36

---

Property: NanoBRET Fold Response; scope: individual compounds
- SYSTEM_TESTED: CCR6 (Homo sapiens, UniProt P51684)
- Construct: purchased Promega (in-house HiBiT-GPCR construct library, NanoBRET)
- Sequence (P51684 whole entry): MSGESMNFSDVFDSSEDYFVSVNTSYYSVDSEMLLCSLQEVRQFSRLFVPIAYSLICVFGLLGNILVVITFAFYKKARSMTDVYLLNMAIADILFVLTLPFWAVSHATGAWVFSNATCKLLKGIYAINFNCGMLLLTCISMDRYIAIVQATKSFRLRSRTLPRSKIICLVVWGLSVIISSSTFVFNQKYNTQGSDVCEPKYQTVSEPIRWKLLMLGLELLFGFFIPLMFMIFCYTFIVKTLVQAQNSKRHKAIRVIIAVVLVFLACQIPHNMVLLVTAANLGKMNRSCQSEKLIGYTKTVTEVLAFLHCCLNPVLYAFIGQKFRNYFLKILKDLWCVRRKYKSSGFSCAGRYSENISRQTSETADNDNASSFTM
- ASSAY_NOTES: NanoBRET screen HiBiT-CCR6 in HEK293
- Format: binding
- RUN_PARAMETERS: CCR6; tracer 1μM

COMPOUND	NanoBRET Fold Response
COc1ccccc1N1CCN(CCCCN2C(=O)c3ccc(CNC(=O)CCOCCNC(=O)c4ccc(CNC(=O)CCc5ccc6n5[B-](F)(F)[N+]5=C(c7ccc[nH]7)C=CC5=C6)cc4)cc3C2=O)CC1	0.93
O=C(CCc1ccc2n1[B-](F)(F)[N+]1=C(c3ccc[nH]3)C=CC1=C2)NCc1ccc(C(=O)NCCOCCC(=O)N[C@@H]2CC[C@@]3(O)[C@H]4Cc5ccc(O)c6c5[C@@]3(CCN4CC3CC3)[C@H]2O6)cc1 [Naltrexone-3-NB590]	1.24
O=C(CCc1ccc2n1[B-](F)(F)[N+]1=C(c3ccc[nH]3)C=CC1=C2)NCCOCCOCCNC(=O)OCCOCCN1CCN(C2=Nc3ccccc3Sc3ccccc32)CC1	0.95
N#CN=C(NCCCOc1cccc(CN2CCCCC2)c1)NCCNC(=O)CCOCCOCCOCCOCCNC(=O)CCc1ccc2n1[B-](F)(F)[N+]1=C(c3ccc[nH]3)C=CC1=C2	1.00
Cc1nc2n(c(=O)c1CCN1CCC(c3noc4cc(F)ccc34)CC1)CCCC2OC(=O)NCCOCCOCCOCCOCCNC(=O)CCc1ccc2n1[B-](F)(F)[N+]1=C(c3ccc[nH]3)C=CC1=C2 (centres unmarked)	0.91

---

- SYSTEM_TESTED: CYSLTR1 (Homo sapiens)
- Construct: purchased Promega (in-house HiBiT-GPCR construct library, NanoBRET)
- Sequence (Q9Y271 whole entry): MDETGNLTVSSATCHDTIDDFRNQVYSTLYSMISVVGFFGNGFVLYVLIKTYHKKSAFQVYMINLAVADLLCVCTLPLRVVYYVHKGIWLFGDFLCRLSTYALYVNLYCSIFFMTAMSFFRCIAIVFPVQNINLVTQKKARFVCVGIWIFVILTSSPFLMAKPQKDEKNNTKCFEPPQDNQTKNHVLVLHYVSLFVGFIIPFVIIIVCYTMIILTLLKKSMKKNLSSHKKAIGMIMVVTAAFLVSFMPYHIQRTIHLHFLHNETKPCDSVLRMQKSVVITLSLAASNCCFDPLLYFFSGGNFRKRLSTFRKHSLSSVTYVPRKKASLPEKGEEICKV
- ASSAY_NOTES: NanoBRET screen HiBiT-CYSLTR1 in HEK293
- Type: binding
- RUN_PARAMETERS: CYSLTR1; tracer 0.1μM
Quick rule: NanoBRET Fold Response of at least 1 means 1.0, below that means 0.0.

MOLECULE	CLASS_ASSIGNMENT
N#CN=C(NCCCOc1cccc(CN2CCCCC2)c1)NCCNC(=O)CCOCCOCCOCCOCCNC(=O)CCc1ccc2n1[B-](F)(F)[N+]1=C(c3ccc[nH]3)C=CC1=C2	1.0
COc1ccccc1N1CCN(CCCCN2C(=O)c3ccc(CNC(=O)CCOCCOCCOCCOCCNC(=O)CCc4ccc5n4[B-](F)(F)[N+]4=C(c6ccc[nH]6)C=CC4=C5)cc3C2=O)CC1	1.0
O=C(CCc1ccc2n1[B-](F)(F)[N+]1=C(c3ccc[nH]3)C=CC1=C2)NCc1ccc(C(=O)NCCOCCC(=O)N[C@@H]2CC[C@@]3(O)[C@H]4Cc5ccc(O)c6c5[C@@]3(CCN4CC3CC3)[C@H]2O6)cc1 [Naltrexone-3-NB590]	0.0
CN(C)CCC=C1c2ccccc2CCc2ccc(C(=O)NCCNC(=O)CCOCCOCCOCCOCCNC(=O)CCc3ccc4n3[B-](F)(F)[N+]3=C(c5ccc[nH]5)C=CC3=C4)cc21	0.0
CC(C)N(CC[C@H](c1ccccc1)c1cc(CCNC(=O)c2ccc(CNC(=O)CCc3ccc4n3[B-](F)(F)[N+]3=C(c5ccc[nH]5)C=CC3=C4)cc2)ccc1O)C(C)C	0.0
Cc1nc2n(c(=O)c1CCN1CCC(c3noc4cc(F)ccc34)CC1)CCCC2OC(=O)NCCOCCOCCOCCOCCNC(=O)CCc1ccc2n1[B-](F)(F)[N+]1=C(c3ccc[nH]3)C=CC1=C2 (centres unmarked)	0.0
O=C(CCc1ccc2n1[B-](F)(F)[N+]1=C(c3ccc[nH]3)C=CC1=C2)NCCOCCOCCNC(=O)OCCOCCN1CCN(C2=Nc3ccccc3Sc3ccccc32)CC1	0.0
O=C(CCOCCOCCOCCOCCNC(=O)CCc1ccc2n1[B-](F)(F)[N+]1=C(c3ccc[nH]3)C=CC1=C2)NCCCN1CCN(C2=Nc3ccccc3Oc3ccc(Cl)cc32)CC1	1.0
COc1ccccc1N1CCN(CCCCN2C(=O)c3ccc(CNC(=O)CCOCCNC(=O)c4ccc(CNC(=O)CCc5ccc6n5[B-](F)(F)[N+]5=C(c7ccc[nH]7)C=CC5=C6)cc4)cc3C2=O)CC1	1.0
CC(C)N(CC[C@H](c1ccccc1)c1cc(CCNC(=O)CCOCCOCCOCCOCCNC(=O)CCc2ccc3n2[B-](F)(F)[N+]2=C(c4ccc[nH]4)C=CC2=C3)ccc1O)C(C)C	0.0

---

- SYSTEM_TESTED: DRD1 (Homo sapiens)
- Construct: purchased Promega (in-house HiBiT-GPCR construct library, NanoBRET)
- Sequence (P21728 whole entry): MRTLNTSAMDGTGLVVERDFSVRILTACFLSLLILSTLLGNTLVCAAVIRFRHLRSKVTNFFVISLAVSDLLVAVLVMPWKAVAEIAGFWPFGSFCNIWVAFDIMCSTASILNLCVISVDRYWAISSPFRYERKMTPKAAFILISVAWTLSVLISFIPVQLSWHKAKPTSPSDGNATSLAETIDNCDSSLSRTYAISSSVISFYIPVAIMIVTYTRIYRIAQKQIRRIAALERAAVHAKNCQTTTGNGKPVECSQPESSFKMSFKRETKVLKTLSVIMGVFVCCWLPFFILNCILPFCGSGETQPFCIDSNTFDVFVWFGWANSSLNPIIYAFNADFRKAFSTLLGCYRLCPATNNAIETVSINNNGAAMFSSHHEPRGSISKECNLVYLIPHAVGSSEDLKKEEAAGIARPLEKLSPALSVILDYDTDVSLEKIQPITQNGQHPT
- ASSAY_NOTES: NanoBRET screen HiBiT-DRD1 in HEK293
- Assay type: binding
- RUN_PARAMETERS: DRD1; tracer 1μM

COMPOUND	SYSTEM_TESTED	NanoBRET Fold Response
CCCn1c(=O)c2[nH]c(-c3ccc(OCC(=O)NCCNC(=O)CCOCCNC(=O)c4ccc(CNC(=O)CCc5ccc6n5[B-](F)(F)[N+]5=C(c7ccc[nH]7)C=CC5=C6)cc4)cc3)nc2n(CCC)c1=O	DRD1 (Homo sapiens)	1.11
O=C(CCOCCOCCOCCOCCNC(=O)CCc1ccc2n1[B-](F)(F)[N+]1=C(c3ccc[nH]3)C=CC1=C2)NCCCN1CCN(C2=Nc3ccccc3Oc3ccc(Cl)cc32)CC1	DRD1 (Homo sapiens)	2.64
O=C(CCc1ccc2n1[B-](F)(F)[N+]1=C(c3ccc[nH]3)C=CC1=C2)NCc1ccc(C(=O)NCCOCCC(=O)N[C@@H]2CC[C@@]3(O)[C@H]4Cc5ccc(O)c6c5[C@@]3(CCN4CC3CC3)[C@H]2O6)cc1 [Naltrexone-3-NB590]	DRD1 (Homo sapiens)	1.03
Cc1cc2c(s1)Nc1ccccc1N=C2N1CCN(CCCNC(=O)CCOCCOCCOCCOCCNC(=O)CCc2ccc3n2[B-](F)(F)[N+]2=C(c4ccc[nH]4)C=CC2=C3)CC1	DRD1 (Homo sapiens)	3.08
CC(C)N(CC[C@H](c1ccccc1)c1cc(CCNC(=O)c2ccc(CNC(=O)CCc3ccc4n3[B-](F)(F)[N+]3=C(c5ccc[nH]5)C=CC3=C4)cc2)ccc1O)C(C)C	DRD1 (Homo sapiens)	1.39
O=C(CCc1ccc2n1[B-](F)(F)[N+]1=C(c3ccc[nH]3)C=CC1=C2)NCCOCCOCCNC(=O)OCCOCCN1CCN(C2=Nc3ccccc3Sc3ccccc32)CC1	DRD1 (Homo sapiens)	1.97
CC(C)N(CC[C@H](c1ccccc1)c1cc(CCNC(=O)CCOCCOCCOCCOCCNC(=O)CCc2ccc3n2[B-](F)(F)[N+]2=C(c4ccc[nH]4)C=CC2=C3)ccc1O)C(C)C	DRD1 (Homo sapiens)	1.01
COc1ccccc1N1CCN(CCCCN2C(=O)c3ccc(CNC(=O)CCOCCNC(=O)c4ccc(CNC(=O)CCc5ccc6n5[B-](F)(F)[N+]5=C(c7ccc[nH]7)C=CC5=C6)cc4)cc3C2=O)CC1	DRD1 (Homo sapiens)	1.32
Cc1nc2n(c(=O)c1CCN1CCC(c3noc4cc(F)ccc34)CC1)CCCC2OC(=O)NCCOCCOCCOCCOCCNC(=O)CCc1ccc2n1[B-](F)(F)[N+]1=C(c3ccc[nH]3)C=CC1=C2 (centres unmarked)	DRD1 (Homo sapiens)	2.38
N#CN=C(NCCCOc1cccc(CN2CCCCC2)c1)NCCNC(=O)CCOCCOCCOCCOCCNC(=O)CCc1ccc2n1[B-](F)(F)[N+]1=C(c3ccc[nH]3)C=CC1=C2	DRD1 (Homo sapiens)	1.06
COc1ccccc1N1CCN(CCCCN2C(=O)c3ccc(CNC(=O)CCOCCOCCOCCOCCNC(=O)CCc4ccc5n4[B-](F)(F)[N+]4=C(c6ccc[nH]6)C=CC4=C5)cc3C2=O)CC1	DRD1 (Homo sapiens)	1.53
